Data provenance is patent US5766897A.

tested system: Thrombin (Homo sapiens, UniProt P00734)
assay summary: thrombin inhibition activity assay (D.4), specific activity
Format: biochemical
protocol conditions: before PEG modification; activity relative to wild type PN-1
readout name: REL TO WT, BEFORE PEG MODIFICATION
Numbers only.

>  <molecule>
D192C (conjugate, UniProt P07093 20-398, looked up, variant D192C, PEG) Glia-derived nexin: SHFNPLSLEELGSNTGIQVFNQIVKSRPHDNIVISPHGIASVLGMLQLGADGRTKKQLAMVMRYGVNGVGKILKKINKAIVSKKNKDIVTVANAVFVKNASEIEVPFVTRNKDVFQCEVRNVNFEDPASACDSINAWVKNETRDMIDNLLSPDLIDGVLTRLVLVNAVYFKGLWKSRFQPENTKKRTFVAACGKSYQVPMLAQLSVFRCGSTSAPNDLWYNFIELPYHGESISMLIALPTESSTPLSAIIPHISTKTIDSWMSIMVPKRVQVILPKFTAVAQTDLKEPLKVLGITDMFDSSKANFAKITTGSENLHVSHILQKAKIEVSEDGTKASAATTAILIARSSPPWFIVDRPFLFFIRHNPTGAVLFMGQINKP

>  <REL TO WT, BEFORE PEG MODIFICATION>
0.091

$$$$

For every item in the list below, what is its measured REL TO WT, BEFORE PEG MODIFICATION?
1. R63C (conjugate, UniProt P07093 20-398, looked up, variant R63C, PEG) Glia-derived nexin: SHFNPLSLEELGSNTGIQVFNQIVKSRPHDNIVISPHGIASVLGMLQLGADGRTKKQLAMVMCYGVNGVGKILKKINKAIVSKKNKDIVTVANAVFVKNASEIEVPFVTRNKDVFQCEVRNVNFEDPASACDSINAWVKNETRDMIDNLLSPDLIDGVLTRLVLVNAVYFKGLWKSRFQPENTKKRTFVAADGKSYQVPMLAQLSVFRCGSTSAPNDLWYNFIELPYHGESISMLIALPTESSTPLSAIIPHISTKTIDSWMSIMVPKRVQVILPKFTAVAQTDLKEPLKVLGITDMFDSSKANFAKITTGSENLHVSHILQKAKIEVSEDGTKASAATTAILIARSSPPWFIVDRPFLFFIRHNPTGAVLFMGQINKP
2. PN-1 (protein, UniProt P07093 20-398, looked up) Glia-derived nexin: SHFNPLSLEELGSNTGIQVFNQIVKSRPHDNIVISPHGIASVLGMLQLGADGRTKKQLAMVMRYGVNGVGKILKKINKAIVSKKNKDIVTVANAVFVKNASEIEVPFVTRNKDVFQCEVRNVNFEDPASACDSINAWVKNETRDMIDNLLSPDLIDGVLTRLVLVNAVYFKGLWKSRFQPENTKKRTFVAADGKSYQVPMLAQLSVFRCGSTSAPNDLWYNFIELPYHGESISMLIALPTESSTPLSAIIPHISTKTIDSWMSIMVPKRVQVILPKFTAVAQTDLKEPLKVLGITDMFDSSKANFAKITTGSENLHVSHILQKAKIEVSEDGTKASAATTAILIARSSPPWFIVDRPFLFFIRHNPTGAVLFMGQINKP
3. G52C (conjugate, UniProt P07093 20-398, looked up, variant G52C, PEG) Glia-derived nexin: SHFNPLSLEELGSNTGIQVFNQIVKSRPHDNIVISPHGIASVLGMLQLGADCRTKKQLAMVMRYGVNGVGKILKKINKAIVSKKNKDIVTVANAVFVKNASEIEVPFVTRNKDVFQCEVRNVNFEDPASACDSINAWVKNETRDMIDNLLSPDLIDGVLTRLVLVNAVYFKGLWKSRFQPENTKKRTFVAADGKSYQVPMLAQLSVFRCGSTSAPNDLWYNFIELPYHGESISMLIALPTESSTPLSAIIPHISTKTIDSWMSIMVPKRVQVILPKFTAVAQTDLKEPLKVLGITDMFDSSKANFAKITTGSENLHVSHILQKAKIEVSEDGTKASAATTAILIARSSPPWFIVDRPFLFFIRHNPTGAVLFMGQINKP

1: 0.10; 2: 1; 3: 0.048
